Entry source: paper PMC12166061

- targetDesc: murine TRIM21 PRY-SPRY domain (Mus musculus)
- Construct: mouse TRIM21 PRY-SPRY domain (residues V291-M470, UniProt-ID: Q62191); made in house; host or cells: E. coli BL21(DE3)
- protocolSummary: Differential scanning fluorimetry (DSF, ΔTm), mouse TRIM21 PRY-SPRY domain
- Assay type: binding
- measurementSetup: 2 mM compound, 8 μM protein
- Description: Briefly, recombinant murine and human TRIM21 PRY-SPRY domain at a concentration of 8 μM were mixed with 2 mM compound in their respective SEC buffer. SYPRO Orange (5000×, Invitrogen) was added as a fluorescence probe (1 µl per mL). Subsequently, temperature-dependent protein unfolding profiles were measured using the QuantStudio™ 5 realtime PCR machine (Thermo Fisher). Excitation and emission filters were set to 465 nm and 590 nm, respectively. […]
# maps each entry to its Tm-shift mTRIM21

[
  {
    "compound": "Cc1cccc(C(=O)N2CCC(C(N)=O)CC2)c1 [Fragment Z32400357]",
    "Tm-shift mTRIM21": "-0.4 °C"
  },
  {
    "compound": "CCC(=O)N1CCCC(NS(C)(=O)=O)C1 (stereo not drawn) [Fragment Z405825414]",
    "Tm-shift mTRIM21": "-0.2 °C"
  },
  {
    "compound": "CS(=O)(=O)NCCc1ccc(F)cc1 [Fragment Z45705015]",
    "Tm-shift mTRIM21": "-0.5 °C"
  },
  {
    "compound": "Cc1c(C(C)NS(C)(=O)=O)cnn1C (stereo not drawn) [Fragment Z369263636]",
    "Tm-shift mTRIM21": "-0.1 °C"
  },
  {
    "compound": "O=C(c1csnn1)N1CCOCC1 [Fragment Z741055844]",
    "Tm-shift mTRIM21": "-0.2 °C"
  },
  {
    "compound": "CCNC1CCN(c2ccncc2)CC1 [Fragment Z2065616520]",
    "Tm-shift mTRIM21": "0.4 °C"
  },
  {
    "compound": "COC1CN(Cc2cncs2)CCC1C (stereo not drawn) [Fragment Z1787761777]",
    "Tm-shift mTRIM21": "-1.6 °C"
  },
  {
    "compound": "O=C1CN(Cc2ccccc2)CC(=O)N1 [Fragment Z3220108246]",
    "Tm-shift mTRIM21": "-0.5 °C"
  },
  {
    "compound": "Cc1cc(Cn2nc(C)ccc2=O)on1 [Fragment Z1079512010]",
    "Tm-shift mTRIM21": "-0.3 °C"
  }
]

###

Each item that follows carries a reported SPR hTRIM21 (Response).
- targetDesc: His-SUMO-hTRIM21 PRY-SPRY (Homo sapiens)
- Construct: Human TRIM21 PRY-SPRY domain (residues V287-I465, UniProt-ID: P19474); made in house; host or cells: E. coli BL21(DE3)
- Sequence (P19474 287-465): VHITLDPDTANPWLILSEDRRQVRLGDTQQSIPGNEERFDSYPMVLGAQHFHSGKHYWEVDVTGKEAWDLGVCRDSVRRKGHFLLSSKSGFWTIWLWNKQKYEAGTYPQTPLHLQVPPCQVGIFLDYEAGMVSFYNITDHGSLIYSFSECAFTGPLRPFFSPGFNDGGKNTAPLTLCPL
- protocolSummary: SPR fragment screening, human TRIM21 PRY-SPRY
- Type: binding
- measurementSetup: single dose 500 µM fragment; relative response, suramin reference threshold 100 relative RU

[
  {
    "compound": "CS(=O)(=O)Cc1nc2ccccc2[nH]1",
    "SPR hTRIM21 (Response)": 80.74
  },
  {
    "compound": "O=C(O)C1CCCN(C(=O)Cc2ccc(F)cc2)C1 (centres unmarked)",
    "SPR hTRIM21 (Response)": 49.09
  },
  {
    "compound": "CC(=O)N1CCCC2(CCCCCC2)C1",
    "SPR hTRIM21 (Response)": 30.21
  },
  {
    "compound": "CNC(=O)C1CNCCO1 (centres unmarked)",
    "SPR hTRIM21 (Response)": 46.15
  },
  {
    "compound": "CC1CN(C(=O)c2cnsn2)C(C)CO1 (centres unmarked)",
    "SPR hTRIM21 (Response)": 20.05
  },
  {
    "compound": "COCC(=O)NCc1ccccc1",
    "SPR hTRIM21 (Response)": 38.23
  },
  {
    "compound": "CC(=O)Nc1cc2c(cc1C)OCO2",
    "SPR hTRIM21 (Response)": 148.8
  },
  {
    "compound": "CC(CS(N)(=O)=O)c1ccccc1 (centres unmarked)",
    "SPR hTRIM21 (Response)": 47.04
  },
  {
    "compound": "NC(=O)N1CCN(C(=O)c2ccco2)CC1",
    "SPR hTRIM21 (Response)": 34.19
  },
  {
    "compound": "O=S1(=O)CCN(Cc2ccco2)CC1",
    "SPR hTRIM21 (Response)": 40.64
  },
  {
    "compound": "CC(=O)NCc1ccnc(N(C)C)c1",
    "SPR hTRIM21 (Response)": 46.45
  },
  {
    "compound": "CN1CCC(Oc2cccc(F)c2)C1=O (centres unmarked)",
    "SPR hTRIM21 (Response)": 55.59
  },
  {
    "compound": "Nc1ccc(S(=O)(=O)Nc2ccccn2)cc1",
    "SPR hTRIM21 (Response)": 79.01
  },
  {
    "compound": "c1cc(NCC2CCCO2)ccn1 (centres unmarked)",
    "SPR hTRIM21 (Response)": 39.64
  },
  {
    "compound": "Cc1cccc(C(=O)N2CCC(C(N)=O)CC2)c1",
    "SPR hTRIM21 (Response)": 52.75
  },
  {
    "compound": "OC1CN(C(c2ccccc2)c2ccccc2)C1",
    "SPR hTRIM21 (Response)": 122.6
  },
  {
    "compound": "Cc1c(C(C)NS(C)(=O)=O)cnn1C (centres unmarked)",
    "SPR hTRIM21 (Response)": 36.54
  },
  {
    "compound": "CC(NC(=O)C1CC1)c1cccnc1 (centres unmarked)",
    "SPR hTRIM21 (Response)": 149.8
  },
  {
    "compound": "CCCn1c(NC(=O)CC)nc2ccccc21",
    "SPR hTRIM21 (Response)": 48.46
  },
  {
    "compound": "CCC(=O)N1CCCC(NS(C)(=O)=O)C1 (centres unmarked)",
    "SPR hTRIM21 (Response)": 27.61
  },
  {
    "compound": "NS(=O)(=O)c1ccccc1OC(F)F",
    "SPR hTRIM21 (Response)": 38.84
  },
  {
    "compound": "CS(=O)(=O)NCCc1ccccc1",
    "SPR hTRIM21 (Response)": 53.67
  },
  {
    "compound": "Cc1nc2[nH]c(C(C)C)cc(=O)n2n1",
    "SPR hTRIM21 (Response)": 61.58
  }
]

###

- targetDesc: His-mTRIM21 PRYSPRY (Mus musculus, UniProt Q62191)
- Construct: mouse TRIM21 PRY-SPRY domain (residues V291-M470, UniProt-ID: Q62191); made in house; host or cells: E. coli BL21(DE3)
- Sequence (Q62191 291-470): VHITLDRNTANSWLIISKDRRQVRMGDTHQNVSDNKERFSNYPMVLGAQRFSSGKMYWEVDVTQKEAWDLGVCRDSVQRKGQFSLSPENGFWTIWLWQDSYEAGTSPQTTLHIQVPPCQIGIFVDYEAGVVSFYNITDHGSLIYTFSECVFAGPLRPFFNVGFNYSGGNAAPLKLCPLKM
- protocolSummary: SPR fragment screening and dose response, mouse TRIM21 PRY-SPRY
- Type: binding
- measurementSetup: single dose 500 µM fragment; relative response, suramin reference threshold 100 relative RU
Field: label. Allowed values: true (SPR mTRIM21 (Response) < 60) or false (SPR mTRIM21 (Response) >= 60).

[
  {
    "compound": "c1cnc(N2CCC3(CCOC3)C2)cn1 (stereo not shown) [Fragment Z1401276297]",
    "categoryLabel": "false"
  },
  {
    "compound": "OC1CN(C(c2ccccc2)c2ccccc2)C1 [Fragment Z1696844792]",
    "categoryLabel": "false"
  },
  {
    "compound": "CC(=O)NCc1ccnc(N(C)C)c1 [Fragment Z374427992]",
    "categoryLabel": "true"
  },
  {
    "compound": "CC(=O)Nc1ccc(CN2CCOCC2)cc1 [Fragment Z57450788]",
    "categoryLabel": "false"
  },
  {
    "compound": "CC#CCN(C)C1CCS(=O)(=O)CC1 [Fragment Z1318110042]",
    "categoryLabel": "false"
  },
  {
    "compound": "CS(=O)(=O)Cc1nc2ccccc2[nH]1 [Fragment Z126932614]",
    "categoryLabel": "false"
  },
  {
    "compound": "Cc1cc(Cn2nc(C)ccc2=O)on1 [Fragment Z1079512010]",
    "categoryLabel": "true"
  },
  {
    "compound": "CC(=O)NC1CNc2ccccc2C1 (stereo not shown) [Fragment Z1492796719]",
    "categoryLabel": "true"
  },
  {
    "compound": "CCc1nnc(NC(=O)C2CCCO2)s1 (stereo not shown) [Fragment Z26823525]",
    "categoryLabel": "true"
  },
  {
    "compound": "Cc1cccc(C(=O)N2CCC(C(N)=O)CC2)c1 [Fragment Z32400357]",
    "categoryLabel": "true"
  },
  {
    "compound": "CNC(=O)c1ccc(S(N)(=O)=O)cc1 [Fragment Z165170770]",
    "categoryLabel": "true"
  },
  {
    "compound": "CC(NC(=O)C1CC1)c1cccnc1 (stereo not shown) [Fragment Z220996120]",
    "categoryLabel": "false"
  },
  {
    "compound": "COC1CN(Cc2cncs2)CCC1C (stereo not shown) [Fragment Z1787761777]",
    "categoryLabel": "true"
  }
]
